ASSAYED_TARGET: T1, TauC3 (C-terminally truncated tau fragment ending at aspartate 421 of htau40) (human, UniProt P10636 1-738)
T1 construct: Generated and purified by Genscript; also called Human TauC3; recombinant TauC3 protein
T1 sequence (P10636 other isoform, or with tags, fused parts or gaps): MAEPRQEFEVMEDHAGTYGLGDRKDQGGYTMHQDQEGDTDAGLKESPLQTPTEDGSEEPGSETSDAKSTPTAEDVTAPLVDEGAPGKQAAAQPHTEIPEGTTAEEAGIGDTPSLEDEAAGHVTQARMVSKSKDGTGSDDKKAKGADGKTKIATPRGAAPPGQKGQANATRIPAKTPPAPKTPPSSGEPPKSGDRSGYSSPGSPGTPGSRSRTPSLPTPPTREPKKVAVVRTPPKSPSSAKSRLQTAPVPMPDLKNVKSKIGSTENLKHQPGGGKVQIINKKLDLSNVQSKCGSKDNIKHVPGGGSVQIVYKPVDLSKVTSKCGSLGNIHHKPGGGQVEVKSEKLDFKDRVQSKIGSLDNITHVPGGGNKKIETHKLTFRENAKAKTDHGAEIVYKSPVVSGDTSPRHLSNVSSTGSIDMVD
PROCEDURE_SUMMARY: binding ELISA on coated TauC3, OD650; left table (HC variants)
MEASURE: EC50

Reference set (2 entries):
Tau01 HCKA (antibody, V domains shown, human IgG4 kappa (HuG4K)) VH: LVQLVESGGGLVQPGGSLKLSCAASGFTFNTYAMNWVRQASGKGLEWVGRIRSKSNNYATYYAASVKGRFTISRDDSKSMAYLQMDSLKTEDTAVYYCVGGGDFWGQGTLVTVSS VL: DIQMTQSPSSLSASVGDRVTITCRASQEISVYLGWYQQKPGKAPKRLIYGAFKLQSGVPSRFSGSRSGTEFTLTISSLQPEDFATYYCLQYVRYPWTFGGGTKVEIK	1.52 nM
Tau01 HCKO (antibody, V domains shown, human IgG4 kappa (HuG4K)) VH: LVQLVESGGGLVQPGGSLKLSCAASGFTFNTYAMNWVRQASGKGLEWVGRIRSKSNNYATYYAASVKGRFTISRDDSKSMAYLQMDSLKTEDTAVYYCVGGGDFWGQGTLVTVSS VL: DIQMTQSPSSLSASVGDRVTITCRASQEISVYLGWYQQKPGKAPKRLIYGAFSLQSGVPSRFSGSRSGTEYTLTISSLQPEDFATYYCLQYVRYPWTFGGGTKVEIK	0.537 nM

Read the next record carefully.
Lookup result for Tau01 HCKN (antibody, V domains shown, human IgG4 kappa (HuG4K)) VH: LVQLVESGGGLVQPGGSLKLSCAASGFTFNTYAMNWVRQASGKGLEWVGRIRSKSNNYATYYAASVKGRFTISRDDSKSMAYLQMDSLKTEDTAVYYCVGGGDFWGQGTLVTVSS VL: DIQMTQSPSSLSASVGDRVTITCRASQEISVYLGWYQQKPGKAPKRLIYGAFTLQSGVPSRFSGSRSGTEYTLTISSLQPEDFATYYCLQYVRYPWTFGGGTKVEIK ; measured EC50: 0.574 nM
